assay: in vitro; design: crystal violet staining viability/proliferation assay, IC50 (SPSS), LM-2I on breast cancer and normal breast epithelial lines; settings: human, Mean; mean of 3 repeats; given as IC50

>  <compound>
CC[C@H]1CCC[C@H](O[C@H]2CC[C@H](N(C)CC(O)CN3CCNCC3)[C@@H](C)O2)[C@@H](C)C(=O)C2=C[C@@H]3[C@@H](C=C[C@@H]4C[C@@H](O[C@@H]5O[C@@H](C)[C@H](OC)[C@@H](OC)[C@H]5OC)C[C@@H]34)[C@@H]2CC(=O)O1 (stereo partly shown) [compound 2, LM-2I]

>  <unit annotation>
µM

>  <CC50>
8.52

$$$$
